Source: patent US10800807B2

TARGET_UNDER_TEST: mTGR5 (Mus musculus)
Construct: expressed in transfected cells; host or cells: CHO-Pi10 clone 4
Sequence (Q80SS6 whole entry): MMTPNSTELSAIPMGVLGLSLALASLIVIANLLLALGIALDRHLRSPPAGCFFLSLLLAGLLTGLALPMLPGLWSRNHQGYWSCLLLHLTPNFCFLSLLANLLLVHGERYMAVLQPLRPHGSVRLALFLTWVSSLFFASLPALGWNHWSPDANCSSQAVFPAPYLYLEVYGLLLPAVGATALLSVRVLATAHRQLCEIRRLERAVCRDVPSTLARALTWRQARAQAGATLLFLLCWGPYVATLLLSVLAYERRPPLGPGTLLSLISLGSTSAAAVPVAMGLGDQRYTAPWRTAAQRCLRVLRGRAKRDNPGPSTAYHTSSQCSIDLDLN
PROCEDURE_DETAILS: TGR5 activity: cAMP in mTGR5 CHO-Pi10 clone 4 cells
Type: cell-based
STATED_CONDITIONS: mTGR5 CHO cells, value in parentheses
OBSERVABLE: EC50 (nM)
Answer with a number only, understood to be in nM.

[Q] Reported EC50 for CC[C@H]1[C@@H](O)[C@@H]2[C@H](CC[C@]3(C)[C@@H]([C@H](C)CCc4nc(=O)o[nH]4)[C@@H](O)C[C@@H]23)[C@@]2(C)CC[C@@H](O)C[C@@H]12 [Compound 18] : what is it?
[A] 370

[Q] Reported EC50 for CC[C@H]1[C@@H](O)[C@@H]2[C@H](C[C@H](O)[C@]3(C)[C@@H]([C@H](C)C[C@H](CF)C(=O)O)CC[C@@H]23)[C@@]2(C)CC[C@@H](O)C[C@@H]12 [Compound 7] : what is it?
[A] 2000

====

TARGET_UNDER_TEST: TGR5 (Homo sapiens, UniProt Q8TDU6)
Sequence (Q8TDU6 1-330): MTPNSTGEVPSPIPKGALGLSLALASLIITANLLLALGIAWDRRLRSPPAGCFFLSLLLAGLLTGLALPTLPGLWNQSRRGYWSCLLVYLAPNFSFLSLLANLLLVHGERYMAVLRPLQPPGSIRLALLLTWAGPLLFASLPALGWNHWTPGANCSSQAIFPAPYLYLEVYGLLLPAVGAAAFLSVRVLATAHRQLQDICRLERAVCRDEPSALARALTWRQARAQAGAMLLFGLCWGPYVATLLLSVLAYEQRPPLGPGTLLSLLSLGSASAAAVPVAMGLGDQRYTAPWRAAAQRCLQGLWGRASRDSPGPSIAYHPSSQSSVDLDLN
PROCEDURE_DETAILS: TGR5 activity: intracellular cAMP levels, NCI-H716 cells (HTR-FRET)
Format: cell-based
Design: endogenous in cells; host or cells: NCI-H716
STATED_CONDITIONS: NCI-H716 cells, cAMP
OBSERVABLE: pEC50
Conceptually, pEC50 converts a concentration in mol/L into minus its log10.

CC[C@@H]1C2C[C@H](O)CC[C@]2(C)C2CC[C@@]3(C)C(CC[C@@H]3[C@H](C)Cc3nn[nH]n3)C2[C@@H]1O (stereo partly shown) [Compound 13] | 5.19
CC[C@H]1[C@@H](O)C2C3CC[C@H]([C@H](C)CCc4noc(=O)[nH]4)[C@@]3(C)[C@@H](O)CC2[C@@]2(C)CC[C@@H](O)C[C@@H]12 (stereo partly shown) [Compound 11] | 5.70
CC[C@H]1[C@@H](O)C2C3CC[C@H]([C@H](C)CC(=O)NCCOS(=O)(=O)[O-])[C@@]3(C)CCC2[C@@]2(C)CC[C@@H](O)C[C@@H]12.[Na+] (stereo partly shown) [Compound 21] | 6.72

[Q] Could you share which pEC50 value was measured for CC[C@H]1[C@@H](O)[C@@H]2[C@H](CC[C@]3(C)[C@@H]([C@H](C)CCc4nn[nH]n4)[C@@H](O)C[C@@H]23)[C@@]2(C)CC[C@@H](O)C[C@@H]12 [Compound 17] ?
[A] 5.92

[Q] What value of measured pEC50 is listed for CC[C@H]1[C@@H](O)[C@@H]2[C@H](C[C@H](O)[C@]3(C)[C@@H]([C@H](C)C[C@H](F)C(=O)O)CC[C@@H]23)[C@@]2(C)CC[C@@H](O)C[C@@H]12 [Compound 8] ?
[A] 5.15
